Source listed as patent US20240409629A1.

Target: human CLDN18.2 (human)
Assay: cell-based or functional assay
assay-endpoint: ADCC EC50, Jurkat-CD16a v158-NFAT-luciferase effector cells, NUGC-4 target cells (nM)
Numbers only here, please. The scale is nM.

binder	number
humanized antibody hz40F6-2.3 (antibody, human IgG1, kappa, V domains shown) VH: QVQLVESGGGVVQPGRSLRLSCAASGFTLTSYGVYWVRQAPGKGLEWVAVVWAGGNTNYADALKGRFTISKDNSKSTLYLQMNSLRAEDTAVYYCARDRGRLLAMDYWGQGTLVTVSS VL: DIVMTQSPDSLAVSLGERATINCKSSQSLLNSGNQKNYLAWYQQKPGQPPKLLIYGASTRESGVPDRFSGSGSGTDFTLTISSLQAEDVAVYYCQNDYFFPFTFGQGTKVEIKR	0.028
humanized antibody hz40F6-2.4 (antibody, human IgG1, kappa, V domains shown) VH: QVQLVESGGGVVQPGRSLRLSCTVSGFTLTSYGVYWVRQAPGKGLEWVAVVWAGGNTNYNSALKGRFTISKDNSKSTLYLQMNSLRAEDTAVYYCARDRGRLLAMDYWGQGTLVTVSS VL: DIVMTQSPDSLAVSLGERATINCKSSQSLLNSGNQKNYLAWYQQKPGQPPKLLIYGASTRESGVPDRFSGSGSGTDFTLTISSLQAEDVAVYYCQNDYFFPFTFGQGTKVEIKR	0.03
humanized antibody hz40F6-1.4 (antibody, human IgG1, kappa, V domains shown) VH: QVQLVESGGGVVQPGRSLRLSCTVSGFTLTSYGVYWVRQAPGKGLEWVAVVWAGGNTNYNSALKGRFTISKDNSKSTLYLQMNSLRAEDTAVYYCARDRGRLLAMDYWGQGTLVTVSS VL: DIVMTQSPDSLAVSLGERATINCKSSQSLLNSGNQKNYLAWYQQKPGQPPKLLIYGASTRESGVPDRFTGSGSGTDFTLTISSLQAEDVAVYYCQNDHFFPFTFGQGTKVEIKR	0.017
humanized antibody hz40F6-1.1 (antibody, human IgG1, kappa, V domains shown) VH: QVQLVESGGGVVQPGRSLRLSCAASGFTLTSYGVYWVRQAPGKGLEWVAVVWAGGNTNYADSVKGRFTISKDNSKSTLYLQMNSLRAEDTAVYYCARDRGRLLAMDYWGQGTLVTVSS VL: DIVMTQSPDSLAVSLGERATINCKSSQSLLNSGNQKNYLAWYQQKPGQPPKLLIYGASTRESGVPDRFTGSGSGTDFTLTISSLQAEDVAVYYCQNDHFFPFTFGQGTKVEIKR	0.045
IMAB362 (antibody, human IgG1, kappa, V domains shown, Positive control, prepared in-house; also called Claudiximab; TMAB362 [sic]) VH: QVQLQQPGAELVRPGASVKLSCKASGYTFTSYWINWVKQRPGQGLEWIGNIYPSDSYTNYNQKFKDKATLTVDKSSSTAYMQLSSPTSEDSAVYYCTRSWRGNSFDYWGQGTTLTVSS VL: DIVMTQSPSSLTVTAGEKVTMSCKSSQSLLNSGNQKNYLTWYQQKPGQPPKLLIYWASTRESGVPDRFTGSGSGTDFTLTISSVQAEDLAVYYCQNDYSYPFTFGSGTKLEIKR	0.856

Turning to the following binder.
Lab note: humanized antibody hz40F6-2.2 (antibody, human IgG1, kappa, V domains shown) VH: QVQLVESGGGVVQPGRSLRLSCAASGFTLTSYGVYWVRQAPGKGLEWVAVVWAGGNTNYNSALMSRFTISKDNSKSTLYLQMNSLRAEDTAVYYCARDRGRLLAMDYWGQGTLVTVSS VL: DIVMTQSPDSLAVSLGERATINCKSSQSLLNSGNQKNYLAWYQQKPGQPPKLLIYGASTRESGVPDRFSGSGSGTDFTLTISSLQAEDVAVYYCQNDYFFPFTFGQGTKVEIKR gave ADCC EC50, Jurkat-CD16a v158-NFAT-luciferase effector cells, NUGC-4 target cells of 0.019
